Test system: 327498-153-R-J2-PDC complex spheroid growth, % test/control
assay-method-text: Anticancer human tumor 327498-153-R-J2-PDC patient-derived uterine carcinosarcoma cell line growth inhibition [Asc]
run-parameters: second compound 0.1 µM; first compound 10 µM; stronger effect = lower value
Reported values of viability, T/C for individual entries
Form entry: value (%) — number only.

Please look at C=CC(=O)N1CCN(c2nc(=O)n(-c3c(C)ccnc3C(C)C)c3nc(-c4c(O)cccc4F)c(F)cc23)C(C)C1 (stereo not drawn) + CNC(C)C(=O)NC1CN(S(=O)(=O)c2cccc(S(=O)(=O)N3CCC4CCC(C(=O)NC(c5ccccc5)c5ccccc5)N4C(=O)C(NC(=O)C(C)NC)C3)c2)CCC2CCC(C(=O)NC(c3ccccc3)c3ccccc3)N2C1=O and tell me its recorded viability, T/C on 327498-153-R-J2-PDC complex spheroid growth, % test/control.
67.6

Fill in viability, T/C for C=CC(=O)N1CCN(c2nc(=O)n(-c3c(C)ccnc3C(C)C)c3nc(-c4c(O)cccc4F)c(F)cc23)C(C)C1 (stereo not drawn) + Cc1c(S(C)(=O)=O)c(-c2cc(F)cc(N3CCN(c4ccc(NS(=O)(=O)c5ccc(NC(CCN6CCC(C(=O)OCCCP(=O)(O)O)CC6)CSc6ccccc6)c(S(=O)(=O)C(F)(F)F)c5)cc4)CC3)c2)c(-c2ccc(Cl)cc2)n1C(C)C tested with 327498-153-R-J2-PDC complex spheroid growth, % test/control.
64.8

State viability, T/C (327498-153-R-J2-PDC complex spheroid growth, % test/control) of O=C(c1cc(Cc2n[nH]c(=O)c3ccccc23)ccc1F)N1CCN(C(=O)C2CC2)CC1 + Cc1c(S(C)(=O)=O)c(-c2cc(F)cc(N3CCN(c4ccc(NS(=O)(=O)c5ccc(NC(CCN6CCC(C(=O)OCCCP(=O)(O)O)CC6)CSc6ccccc6)c(S(=O)(=O)C(F)(F)F)c5)cc4)CC3)c2)c(-c2ccc(Cl)cc2)n1C(C)C .
9.69

More entries:
Find the measured viability, T/C of C=C(F)C(=O)N1CCN(c2nc(OCC3CCCN3C)nc3c2CCN(c2cccc4cccc(Cl)c24)C3)CC1CC#N (stereo not drawn) + CNC(C)C(=O)NC1CN(S(=O)(=O)c2cccc(S(=O)(=O)N3CCC4CCC(C(=O)NC(c5ccccc5)c5ccccc5)N4C(=O)C(NC(=O)C(C)NC)C3)c2)CCC2CCC(C(=O)NC(c3ccccc3)c3ccccc3)N2C1=O with 327498-153-R-J2-PDC complex spheroid growth, % test/control as test system.
0.13

---

Recorded viability, T/C by entry
Test system: 327498-153-R-J2-PDC complex spheroid growth, % test/control
assay-method-text: Anticancer human tumor 327498-153-R-J2-PDC cell line growth inhibition [Asc];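 note: spheroids exposed to compound for 7 days after 3 days of growth; 100% = DMSO vehicle control wells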
run-parameters: second compound 10 µM; first compound 0.00316 µM; stronger effect = lower value
Hi! Could you send only the number? It should be in %, unit omitted.

Solved cases (2 shown):
Give the reported value of viability, T/C for this record: CNC(C)C(=O)NC1CN(S(=O)(=O)c2cccc(S(=O)(=O)N3CCC4CCC(C(=O)NC(c5ccccc5)c5ccccc5)N4C(=O)C(NC(=O)C(C)NC)C3)c2)CCC2CCC(C(=O)NC(c3ccccc3)c3ccccc3)N2C1=O (stereo not drawn) + Cc1c(S(C)(=O)=O)c(-c2cc(F)cc(N3CCN(c4ccc(NS(=O)(=O)c5ccc(NC(CCN6CCC(C(=O)OCCCP(=O)(O)O)CC6)CSc6ccccc6)c(S(=O)(=O)C(F)(F)F)c5)cc4)CC3)c2)c(-c2ccc(Cl)cc2)n1C(C)C
173

Give the reported viability, T/C for this molecule. COc1c(OCCCN2CCOCC2)ccc2c3n(c(=NC(=O)c4cnc(N)nc4)nc12)CCN3 + Cc1c(S(C)(=O)=O)c(-c2cc(F)cc(N3CCN(c4ccc(NS(=O)(=O)c5ccc(NC(CCN6CCC(C(=O)OCCCP(=O)(O)O)CC6)CSc6ccccc6)c(S(=O)(=O)C(F)(F)F)c5)cc4)CC3)c2)c(-c2ccc(Cl)cc2)n1C(C)C
166

Proceed to the following item.
Write down viability, T/C measured for item Cn1ncnc1[C@H]1c2n[nH]c(=O)c3cc(F)cc(c23)N[C@@H]1c1ccc(F)cc1 + Cc1c(S(C)(=O)=O)c(-c2cc(F)cc(N3CCN(c4ccc(NS(=O)(=O)c5ccc(NC(CCN6CCC(C(=O)OCCCP(=O)(O)O)CC6)CSc6ccccc6)c(S(=O)(=O)C(F)(F)F)c5)cc4)CC3)c2)c(-c2ccc(Cl)cc2)n1C(C)C
150

---

Reported viability, T/C by item:
System: 327498-153-R-J2-PDC complex spheroid growth, % test/control
assay-method-text: Anticancer human tumor 327498-153-R-J2-PDC cell line growth inhibition [Asc];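 note: spheroids exposed to compound for 7 days after 3 days of growth; 100% = DMSO vehicle control wells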
run-parameters: second compound 0.1 µM; first compound 0.00949 µM; stronger effect = lower value
Number only, in %; omit the unit.

Solved cases (3 shown):
Please report the measured viability, T/C for CCN1C(C(=O)NC23CCC(C(=O)O)(CC2)CC3)C(c2cccc(Cl)c2F)C2(C(=O)Nc3cc(Cl)ccc32)C12CCCCC2 (centres undefined) + Cc1c(S(C)(=O)=O)c(-c2cc(F)cc(N3CCN(c4ccc(NS(=O)(=O)c5ccc(NC(CCN6CCC(C(=O)OCCCP(=O)(O)O)CC6)CSc6ccccc6)c(S(=O)(=O)C(F)(F)F)c5)cc4)CC3)c2)c(-c2ccc(Cl)cc2)n1C(C)C
92.5

Identify viability, T/C associated with the compound Cc1nc(N2CCC3(CC2)COC(C)C3N)c(CO)nc1Sc1ccnc(N)c1Cl (centres undefined) + CNC(C)C(=O)NC1CN(S(=O)(=O)c2cccc(S(=O)(=O)N3CCC4CCC(C(=O)NC(c5ccccc5)c5ccccc5)N4C(=O)C(NC(=O)C(C)NC)C3)c2)CCC2CCC(C(=O)NC(c3ccccc3)c3ccccc3)N2C1=O
97.4

State, in one line, measured viability, T/C of NC(=O)C(=Cn1cnc(-c2cc(C(F)(F)F)cc(C(F)(F)F)c2)n1)c1cncnc1 + CNC(C)C(=O)NC1CN(S(=O)(=O)c2cccc(S(=O)(=O)N3CCC4CCC(C(=O)NC(c5ccccc5)c5ccccc5)N4C(=O)C(NC(=O)C(C)NC)C3)c2)CCC2CCC(C(=O)NC(c3ccccc3)c3ccccc3)N2C1=O
85.8

Others:
Quick one: give measured viability, T/C for NC(=O)C(=Cn1cnc(-c2cc(C(F)(F)F)cc(C(F)(F)F)c2)n1)c1cncnc1 + Cc1c(S(C)(=O)=O)c(-c2cc(F)cc(N3CCN(c4ccc(NS(=O)(=O)c5ccc(NC(CCN6CCC(C(=O)OCCCP(=O)(O)O)CC6)CSc6ccccc6)c(S(=O)(=O)C(F)(F)F)c5)cc4)CC3)c2)c(-c2ccc(Cl)cc2)n1C(C)C
84.6

---

Parameter: viability, T/C. Scope: all listed entries.
Test system: 327498-153-R-J2-PDC complex spheroid growth, % test/control
assay-method-text: Anticancer human tumor 327498-153-R-J2-PDC cell line growth inhibition [Asc];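 note: spheroids exposed to compound for 7 days after 3 days of growth; 100% = DMSO vehicle control wells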
run-parameters: second compound 1 µM; first compound 0.00316 µM; stronger effect = lower value
Reply with just the number (in %).

Respond only with viability, T/C recorded for CCN1CCN(Cc2ccc(Nc3ncc(F)c(-c4cc(F)c5nc(C)n(C(C)C)c5c4)n3)nc2)CC1 + Cc1c(S(C)(=O)=O)c(-c2cc(F)cc(N3CCN(c4ccc(NS(=O)(=O)c5ccc(NC(CCN6CCC(C(=O)OCCCP(=O)(O)O)CC6)CSc6ccccc6)c(S(=O)(=O)C(F)(F)F)c5)cc4)CC3)c2)c(-c2ccc(Cl)cc2)n1C(C)C
95.3

Give me measured viability, T/C, please, for this compound: O=C(c1ccc(F)c(F)c1Nc1ccc(I)cc1F)N1CC(O)([C@@H]2CCCCN2)C1 + Cc1c(S(C)(=O)=O)c(-c2cc(F)cc(N3CCN(c4ccc(NS(=O)(=O)c5ccc(NC(CCN6CCC(C(=O)OCCCP(=O)(O)O)CC6)CSc6ccccc6)c(S(=O)(=O)C(F)(F)F)c5)cc4)CC3)c2)c(-c2ccc(Cl)cc2)n1C(C)C
98.6

Give me measured viability, T/C, please, for this compound: CCN1CCN(Cc2ccc(Nc3ncc(F)c(-c4cc(F)c5nc(C)n(C(C)C)c5c4)n3)nc2)CC1 + CNC(C)C(=O)NC1CN(S(=O)(=O)c2cccc(S(=O)(=O)N3CCC4CCC(C(=O)NC(c5ccccc5)c5ccccc5)N4C(=O)C(NC(=O)C(C)NC)C3)c2)CCC2CCC(C(=O)NC(c3ccccc3)c3ccccc3)N2C1=O
106

Give the reported value of viability, T/C for this record: O=C(c1ccc(F)c(F)c1Nc1ccc(I)cc1F)N1CC(O)([C@@H]2CCCCN2)C1 + CNC(C)C(=O)NC1CN(S(=O)(=O)c2cccc(S(=O)(=O)N3CCC4CCC(C(=O)NC(c5ccccc5)c5ccccc5)N4C(=O)C(NC(=O)C(C)NC)C3)c2)CCC2CCC(C(=O)NC(c3ccccc3)c3ccccc3)N2C1=O
104

Respond only with viability, T/C recorded for NC1CCC(NC2CC2c2ccccc2)CC1 (stereo unspecified) + CNC(C)C(=O)NC1CN(S(=O)(=O)c2cccc(S(=O)(=O)N3CCC4CCC(C(=O)NC(c5ccccc5)c5ccccc5)N4C(=O)C(NC(=O)C(C)NC)C3)c2)CCC2CCC(C(=O)NC(c3ccccc3)c3ccccc3)N2C1=O
108

Now for a further compound.
Provide measured viability, T/C value, entry: NC1CCC(NC2CC2c2ccccc2)CC1 (stereo unspecified) + Cc1c(S(C)(=O)=O)c(-c2cc(F)cc(N3CCN(c4ccc(NS(=O)(=O)c5ccc(NC(CCN6CCC(C(=O)OCCCP(=O)(O)O)CC6)CSc6ccccc6)c(S(=O)(=O)C(F)(F)F)c5)cc4)CC3)c2)c(-c2ccc(Cl)cc2)n1C(C)C
90.4
